- MEASURED_ON: human DNA topoisomerase IIα (Homo sapiens)
- Construct: purchased TopoGEN, Inc
- Sequence (P11388 whole entry): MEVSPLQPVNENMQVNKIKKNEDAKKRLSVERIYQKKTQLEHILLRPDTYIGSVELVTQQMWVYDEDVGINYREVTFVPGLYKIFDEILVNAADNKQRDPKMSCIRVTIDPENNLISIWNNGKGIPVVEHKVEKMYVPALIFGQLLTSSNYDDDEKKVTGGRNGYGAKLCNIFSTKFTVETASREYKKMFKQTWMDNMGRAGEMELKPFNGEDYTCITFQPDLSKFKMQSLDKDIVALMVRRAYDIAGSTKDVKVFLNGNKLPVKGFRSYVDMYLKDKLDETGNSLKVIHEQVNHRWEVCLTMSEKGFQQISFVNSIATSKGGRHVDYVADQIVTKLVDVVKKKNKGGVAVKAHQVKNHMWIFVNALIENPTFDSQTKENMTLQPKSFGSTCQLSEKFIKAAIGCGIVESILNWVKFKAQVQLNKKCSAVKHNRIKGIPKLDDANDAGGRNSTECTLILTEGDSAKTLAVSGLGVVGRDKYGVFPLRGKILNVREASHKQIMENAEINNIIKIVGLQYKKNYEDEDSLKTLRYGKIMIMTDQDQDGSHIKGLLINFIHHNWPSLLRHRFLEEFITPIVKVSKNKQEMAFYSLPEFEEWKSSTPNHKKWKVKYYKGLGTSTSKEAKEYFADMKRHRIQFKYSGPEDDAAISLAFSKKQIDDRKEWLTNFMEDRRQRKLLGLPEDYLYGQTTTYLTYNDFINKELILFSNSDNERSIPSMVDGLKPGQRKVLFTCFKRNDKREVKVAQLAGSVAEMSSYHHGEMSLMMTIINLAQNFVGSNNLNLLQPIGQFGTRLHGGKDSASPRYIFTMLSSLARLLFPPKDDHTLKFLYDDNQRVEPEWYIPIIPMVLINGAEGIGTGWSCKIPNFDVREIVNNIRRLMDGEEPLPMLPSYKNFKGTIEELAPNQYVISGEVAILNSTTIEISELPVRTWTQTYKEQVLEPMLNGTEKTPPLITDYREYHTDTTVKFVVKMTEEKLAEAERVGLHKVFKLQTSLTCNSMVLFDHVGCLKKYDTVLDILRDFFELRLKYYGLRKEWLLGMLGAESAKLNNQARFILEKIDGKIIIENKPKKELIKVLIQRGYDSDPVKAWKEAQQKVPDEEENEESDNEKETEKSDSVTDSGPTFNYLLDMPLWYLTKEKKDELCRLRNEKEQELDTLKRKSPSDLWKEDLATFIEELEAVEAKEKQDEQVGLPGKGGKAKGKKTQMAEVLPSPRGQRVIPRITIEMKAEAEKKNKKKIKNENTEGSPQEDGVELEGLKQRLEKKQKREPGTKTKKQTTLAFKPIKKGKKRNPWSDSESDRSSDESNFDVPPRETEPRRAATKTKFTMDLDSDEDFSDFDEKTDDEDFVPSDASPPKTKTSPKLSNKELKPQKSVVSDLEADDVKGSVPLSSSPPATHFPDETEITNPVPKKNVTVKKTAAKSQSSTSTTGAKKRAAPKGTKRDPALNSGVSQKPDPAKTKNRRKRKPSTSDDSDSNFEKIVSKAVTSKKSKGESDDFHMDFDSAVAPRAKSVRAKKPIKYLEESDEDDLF
- ASSAY: Human DNA topoisomerase IIα activity assay (TopoGEN kit, plasmid based)
- Assay type: biochemical
READOUT_KIND: IC50 (µM)

Reference set, count: 2
[[record]]
compound = "CCNC(=O)N1C/C(=C\\c2ccc(OC)cc2)C(=O)/C(=C/c2ccc(OC)cc2)C1 [Compound 46]"
readout_kind = "IC50"
observed_value = 56.2

[[record]]
compound = "COc1ccc(/C=C2\\CN(C(=O)NCc3ccccc3)C/C(=C\\c3ccc(OC)cc3)C2=O)cc1 [Compound 47]"
readout_kind = "IC50"
observed_value = 33


[a] COc1ccc(/C=C2\CN(C(=O)Nc3ccc(Cl)cc3)C/C(=C\c3ccc(OC)cc3)C2=O)cc1 [Compound 44]
[b] CCNC(=O)N1C/C(=C\c2ccc(F)cc2)C(=O)/C(=C/c2ccc(F)cc2)C1 [Compound 37]
Hi, I'm comparing two records. Which one has the lower IC50, a or b ? Pick one and reply with its label.
b
(b: 27.2 µM, a: 46.2 µM)

###

READOUT_KIND: melting point

Reference set, count: 10
[[record]]
compound = "COc1ccc(NC(=O)N2C/C(=C\\c3ccc(C)cc3)C(=O)/C(=C/c3ccc(C)cc3)C2)cc1 [Compound 40]"
observed_value = "230 to 232 °C"

[[record]]
compound = "CCNC(=O)N1C/C(=C\\c2ccccc2)C(=O)/C(=C/c2ccccc2)C1 [Compound 27]"
observed_value = "172 to 174 °C"

[[record]]
compound = "COc1ccc(NC(=O)N2C/C(=C\\c3ccc(F)cc3)C(=O)/C(=C/c3ccc(F)cc3)C2)cc1 [Compound 36]"
observed_value = "189 to 191 °C"

[[record]]
compound = "O=C1/C(=C/c2ccc(F)cc2)CN(C(=O)Nc2ccccc2)C/C1=C\\c1ccc(F)cc1 [Compound 34]"
observed_value = "191 to 193 °C"

[[record]]
compound = "CCNC(=O)N1C/C(=C\\c2cccs2)C(=O)/C(=C/c2cccs2)C1 [Compound 50]"
observed_value = "197 to 199 °C"

[[record]]
compound = "COc1ccc(NC(=O)N2C/C(=C\\c3ccccc3)C(=O)/C(=C/c3ccccc3)C2)cc1 [Compound 26]"
observed_value = "184 to 186 °C"

[[record]]
compound = "CCNC(=O)N1C/C(=C\\c2ccc(Cl)cc2)C(=O)/C(=C/c2ccc(Cl)cc2)C1 [Compound 32]"
observed_value = "211 to 213 °C"

[[record]]
compound = "COc1ccc(NC(=O)N2C/C(=C\\c3cccs3)C(=O)/C(=C/c3cccs3)C2)cc1 [Compound 49]"
observed_value = "194 to 196 °C"

[[record]]
compound = "CCNC(=O)N1C/C(=C\\c2ccc(OC)cc2)C(=O)/C(=C/c2ccc(OC)cc2)C1 [Compound 46]"
observed_value = "173 to 175 °C"

[[record]]
compound = "COc1ccc(/C=C2\\CN(C(=O)Nc3ccc(OC)cc3)C/C(=C\\c3ccc(OC)cc3)C2=O)cc1 [Compound 45]"
observed_value = "212 to 214 °C"


Consider now this further compound.
Identify measured melting point associated with COc1ccc(/C=C2\CN(C(=O)Nc3ccc(Cl)cc3)C/C(=C\c3ccc(OC)cc3)C2=O)cc1 [Compound 44]
185 to 187 °C
